# system: OR2M3 wt (Homo sapiens)
# Construct: full-length gene-specific forward and reverse primers were added; 39aa rho-tag; expressed in transfected cells; host or cells: NxG 108CC15 or HEK-293 cells
# method: cAMP-luminescence GloSensor assay, recombinant OR2M3 wt
# Format: cell-based
# measurementParameters: OR2M3 wt; presence of 30 µmol/L CuCl2; read-out: EC50
pEC50: −log10 of the molar value.

molecule	pEC50
CCC(S)C(C)CO (stereo not shown)	6.26

====

# system: OR2W1 S109A (Homo sapiens, UniProt Q9Y3N9, S109A)
# Construct: 39aa rho-tag; expressed in transfected cells; host or cells: NxG 108CC15 or HEK-293 cells
# Sequence (Q9Y3N9 whole entry S109A): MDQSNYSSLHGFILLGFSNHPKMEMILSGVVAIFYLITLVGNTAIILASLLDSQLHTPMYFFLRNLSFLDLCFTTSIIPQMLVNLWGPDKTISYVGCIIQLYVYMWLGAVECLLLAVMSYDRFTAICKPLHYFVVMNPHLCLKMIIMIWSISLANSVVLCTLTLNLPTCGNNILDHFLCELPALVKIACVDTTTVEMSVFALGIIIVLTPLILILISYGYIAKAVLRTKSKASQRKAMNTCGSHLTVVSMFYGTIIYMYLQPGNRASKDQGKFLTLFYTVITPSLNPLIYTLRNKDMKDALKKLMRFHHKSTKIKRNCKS
# method: GloSensor assay, OR2W1 S109A
# Type: cell-based
# measurementParameters: read-out: EC50 in the absence of Cu^2+
propertyMeasured: EC50

compound	propertyMeasured	value
SCCc1ccccc1 [2-Phenylethanethiol, 2-phenylethanethiol]	EC50	34.4 µM
CCCC(S)CCOC(C)=O (centres unmarked) [3-Mercaptohexyl acetate, 3-mercaptohexyl acetate]	EC50	146 µM

====

# system: sphingosine-1-phosphate receptor 4 (S1P4)
# method: cAMP-luminescence GloSensor assay, endogenously expressed S1P4
# Assay type: cell-based
# measurementParameters: 10 µmol/L Cu^2+, footnote b: EC50 in nmol/L, read-out: EC50 in the presence of Cu^2+
pEC50: −log10 of the molar value.
propertyMeasured: pEC50

compoundString	propertyMeasured	value
COCCN=C1S/C(=C\c2cc(C)n(-c3ccc(F)cc3F)c2C)C(=O)N1C	pEC50	6.46

====

# system: OR2M3 Y104C (Homo sapiens, UniProt Q8NG83, Y104C)
# Construct: full-length gene-specific forward and reverse primers were added; 39aa rho-tag
# method: GloSensor assay, OR2M3 Y104C
# measurementParameters: OR2M3 Y104C (SNP haplotype)
propertyMeasured: EC50 (nM)

compound	value
CCC(S)C(C)CO (stereo not shown) [3-Mercapto-2-methylpentan-1-ol, 3-mercapto-2-methylpentan-1-ol]	1020

====

# system: OR2M3 wt (Homo sapiens)
# Construct: full-length gene-specific forward and reverse primers were added; 39aa rho-tag; expressed in transfected cells; host or cells: NxG 108CC15 or HEK-293 cells
# method: cAMP-luminescence GloSensor assay, recombinant OR2M3 wt
# Assay type: cell-based
# measurementParameters: OR2M3 wt; 30 µmol/L FeCl3; read-out: EC50
pEC50: −log10 of the molar value.

compound	pEC50
CCC(S)C(C)CO (stereo not shown)	5.78

====

# system: OR2M3 wt (Homo sapiens)
# Construct: full-length gene-specific forward and reverse primers were added; 39aa rho-tag; expressed in transfected cells; host or cells: NxG 108CC15 or HEK-293 cells
# method: cAMP-luminescence GloSensor assay, recombinant OR2M3 wt
# Format: cell-based
# measurementParameters: OR2M3 wt; copper concentration 100 µmol; read-out: EC50
propertyMeasured: EC50

molecule	system	propertyMeasured	value
CCC(S)C(C)CO (stereo not shown)	OR2M3 wt (Homo sapiens)	EC50	1.95 µM

====

# system: OR2W1 wt (Homo sapiens)
# Construct: 39aa rho-tag; expressed in transfected cells; host or cells: NxG 108CC15 or HEK-293 cells
# method: cAMP-luminescence GloSensor assay, recombinant OR2W1 wt
# Assay type: cell-based
# measurementParameters: mean ± SD (n = 3–5), read-out: EC50 in the absence of Cu^2+
pEC50: −log10 of the molar value.
Recorded measurements of pEC50, one per entry

compound	pEC50
SCCc1ccccc1	4.42
CCCC(S)CCOC(C)=O (centres unmarked) [3-Mercaptohexyl acetate, 3-mercaptohexyl acetate]	3.88

====

# system: sphingosine-1-phosphate receptor 4 (S1P4)
# method: cAMP-luminescence GloSensor assay, endogenously expressed S1P4
# Format: cell-based
# measurementParameters: footnote b: EC50 in nmol/L, read-out: EC50 in the absence of Cu^2+

compound	EC50 [µM]
COCCN=C1S/C(=C\c2cc(C)n(-c3ccc(F)cc3F)c2C)C(=O)N1C [CYM50308]	0.517

====

Listing of recorded EC50 by entry.
# system: OR2W1 L202S (Homo sapiens, UniProt Q9Y3N9, L202S)
# Construct: 39aa rho-tag; expressed in transfected cells; host or cells: NxG 108CC15 or HEK-293 cells
# Sequence (Q9Y3N9 whole entry L202S): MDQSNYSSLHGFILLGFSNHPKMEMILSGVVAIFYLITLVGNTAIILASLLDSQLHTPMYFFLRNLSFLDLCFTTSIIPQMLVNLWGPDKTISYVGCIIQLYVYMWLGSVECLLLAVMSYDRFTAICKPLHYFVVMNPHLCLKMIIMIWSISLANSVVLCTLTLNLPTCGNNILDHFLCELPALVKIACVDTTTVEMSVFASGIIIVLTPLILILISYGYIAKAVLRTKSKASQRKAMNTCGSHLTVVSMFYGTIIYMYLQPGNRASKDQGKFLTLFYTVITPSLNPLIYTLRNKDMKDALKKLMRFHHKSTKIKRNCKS
# method: GloSensor assay, OR2W1 L202S
# Assay type: cell-based
# measurementParameters: read-out: EC50 in the absence of Cu^2+
propertyMeasured: EC50

molecule	value
SCCc1ccccc1 [2-Phenylethanethiol, 2-phenylethanethiol]	97 µM
CCCC(S)CCOC(C)=O (centres unmarked) [3-Mercaptohexyl acetate, 3-mercaptohexyl acetate]	146 µM

====

# system: OR2M3 wt (Homo sapiens, UniProt Q8NG83)
# Construct: full-length gene-specific forward and reverse primers were added; 39aa rho-tag; expressed in transfected cells; host or cells: NxG 108CC15 or HEK-293 cells
# Sequence (Q8NG83 1-312): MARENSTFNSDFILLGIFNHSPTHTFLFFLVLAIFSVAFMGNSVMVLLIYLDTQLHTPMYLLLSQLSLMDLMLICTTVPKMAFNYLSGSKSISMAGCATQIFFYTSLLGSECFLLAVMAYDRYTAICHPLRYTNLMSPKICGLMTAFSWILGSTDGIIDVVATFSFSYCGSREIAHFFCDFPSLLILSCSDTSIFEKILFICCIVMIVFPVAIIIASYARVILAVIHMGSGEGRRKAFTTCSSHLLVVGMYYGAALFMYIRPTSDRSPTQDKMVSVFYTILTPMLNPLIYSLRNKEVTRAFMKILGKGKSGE
# method: cAMP-luminescence GloSensor assay, recombinant OR2M3 wt
# Type: cell-based
# measurementParameters: OR2M3 wt; 30 µmol/L colloidal Ag; read-out: EC50
# Description: The assay was performed as reported above. All data are presented as mean ± SD.
pEC50: −log10 of the molar value.

compound	pEC50
CCC(S)C(C)CO (stereo not shown) [3-Mercapto-2-methylpentan-1-ol, 3-mercapto-2-methylpentan-1-ol]	6.12

====

# system: OR2W1 wt (Homo sapiens, UniProt Q9Y3N9)
# Construct: 39aa rho-tag; expressed in transfected cells; host or cells: NxG 108CC15 or HEK-293 cells
# Sequence (Q9Y3N9 whole entry): as the sequence (Q9Y3N9 whole entry S109A) above, with A109S counted along it
# method: cAMP-luminescence GloSensor assay, recombinant OR2W1 wt
# Format: cell-based
# measurementParameters: EC50 in the presence of Cu^2+, 10 µmol/L Cu^2+

compound	system	EC50 / µM
C=CCOC(=O)Cc1ccccc1 [Allyl phenyl acetate, allyl phenyl acetate]	OR2W1 wt (Homo sapiens, UniProt Q9Y3N9)	55.2

====

# system: OR2M3 wt (Homo sapiens, UniProt Q8NG83)
# Construct: full-length gene-specific forward and reverse primers were added; 39aa rho-tag; expressed in transfected cells; host or cells: NxG 108CC15 or HEK-293 cells
# method: cAMP-luminescence GloSensor assay, recombinant OR2M3 wt
# Format: cell-based
# measurementParameters: OR2M3 wt; 30 µmol/L CoCl2; read-out: EC50

molecule	EC50 / nM
CCC(S)C(C)CO (stereo not shown) [3-Mercapto-2-methylpentan-1-ol, 3-mercapto-2-methylpentan-1-ol]	730

====

# system: OR2T11 C119R (Homo sapiens, UniProt Q8NH01, C119R)
# Sequence (Q8NH01 whole entry C119R): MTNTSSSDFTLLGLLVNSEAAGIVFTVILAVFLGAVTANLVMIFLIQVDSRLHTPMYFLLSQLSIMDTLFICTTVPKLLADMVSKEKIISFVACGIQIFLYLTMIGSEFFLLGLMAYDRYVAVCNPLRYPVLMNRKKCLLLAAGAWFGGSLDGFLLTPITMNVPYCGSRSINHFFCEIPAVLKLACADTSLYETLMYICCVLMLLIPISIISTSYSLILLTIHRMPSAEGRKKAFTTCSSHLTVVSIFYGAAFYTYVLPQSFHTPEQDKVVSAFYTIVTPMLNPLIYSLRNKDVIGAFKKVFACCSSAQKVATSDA
# method: GloSensor assay, OR2T11 C119R
# measurementParameters: presence of 30 µmol/L CuCl2 (footnote d)
pEC50: −log10 of the molar value.
propertyMeasured: pEC50

compoundString	propertyMeasured	value
CC(C)(C)S	pEC50	6.60

====

# system: OR2M3 wt (Homo sapiens, UniProt Q8NG83)
# Construct: full-length gene-specific forward and reverse primers were added; 39aa rho-tag; expressed in transfected cells; host or cells: NxG 108CC15 or HEK-293 cells
# method: cAMP-luminescence GloSensor assay, recombinant OR2M3 wt
# Type: cell-based
# measurementParameters: OR2M3 wt; 30 µmol/L CuCl2 + copper chelator TEPA; read-out: EC50
pEC50: −log10 of the molar value.

molecule	pEC50
CCC(S)C(C)CO (stereo not shown)	5.95

====

# system: OR2W1 S109A (Homo sapiens, UniProt Q9Y3N9, S109A)
# Construct: 39aa rho-tag; expressed in transfected cells; host or cells: NxG 108CC15 or HEK-293 cells
# method: GloSensor assay, OR2W1 S109A
# Type: cell-based
# measurementParameters: EC50 in the presence of Cu^2+, 10 µmol/L Cu^2+
# Experimental: All receptor variants used were generated by PCR-based site-directed mutagenesis in two steps. Gene-specific primers (mutation primers) were used according to Table S2 and Table S3. The mutation primers, which carried the changed nucleotides, were designed overlapping. The assay was performed as reported above. All data are presented as mean ± SD.

molecule	EC50, µM
C=CCOC(=O)Cc1ccccc1 [Allyl phenyl acetate, allyl phenyl acetate]	119

====

# system: OR2M3 wt (Homo sapiens, UniProt Q8NG83)
# Construct: full-length gene-specific forward and reverse primers were added; 39aa rho-tag; expressed in transfected cells; host or cells: NxG 108CC15 or HEK-293 cells
# method: cAMP-luminescence GloSensor assay, recombinant OR2M3 wt
# Assay type: cell-based
# measurementParameters: OR2M3 wt; 30 µmol/L NiCl2; read-out: EC50

compound	EC50 (nM)
CCC(S)C(C)CO (stereo not shown)	1090
